Ref: patent US20220041711A1

Target: T1, cyno LAIR-1-ECD (cynomolgus monkey)
T1 construct: Recombinant, expressed in mammalian cells; also called extracellular region of cyno LAIR-1
T1 chain: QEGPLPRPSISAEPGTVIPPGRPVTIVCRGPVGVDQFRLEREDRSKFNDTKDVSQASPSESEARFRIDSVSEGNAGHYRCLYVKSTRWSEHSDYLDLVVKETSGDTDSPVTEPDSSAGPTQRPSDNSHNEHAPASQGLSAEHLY
Experiment: SPR (Biacore); antibody captured by anti-Fc; LAIR-1-ECD injected;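 also: Anti-Fc immobilized on a CM5 chip, LAIR-1-ECD (human or cynomolgus) injected at 3.3-10 nM and 25 °C, kinetics fitted by simultaneous global fit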
Provide the reported koff of each item.

Ask: Fill in koff for record anti-LAIR-1 antibody 61H4 (antibody, V domains shown, Monoclonal antibody from immunized mice (hybridoma)) VH: EVQLQQSGPEVLKPGASVKISCKASGYTFTDYYYMNWVKQSHGKSLEWIGYIYPNNGATSYNQKFKGKATLTVDKSSSTAYMELRSLTSEDSAVYYCARDGYSSNYYTMDYWGQGTSVTVSS VL: DVQMIQSPSSLSASLGDIVTMTCQASQGTSINLNWFQQKPGKAPKLLIYGASNLEDGVPSRFSGSRYGTDFTLTISSLEDEDMATYFCLQHTYLPYTFGGGTKLEIK
Reply: 0.00077 s⁻¹

Ask: Fill in koff for record anti-LAIR-1 antibody 47A1 (antibody, V domains shown, Monoclonal antibody from immunized mice (hybridoma)) VH: EVQLVESGGGLVQPKGSLKLSCAASGFTFNTYAIHWVRQAPGKGLEWVARIRSKSTNYATYYADSVKDRFTISRDDSQSMVFLQMNNLKTEDTAMYYCVRENWYYYALDYWGQGTSVTVSS VL: DIQMTQSPASLSASVGETVTITCRASGNIHNYLTWYQQKQGKSPQVLVYNAKTLEDGVPSRFSGSESGTQYSLKINSLQPEDFGSYYCQHFWSTPFTFGSGTKLEIK
Reply: 0.0057 s⁻¹

Now let's try a different one.
Ask: Fill in koff for record anti-LAIR-1 antibody 57D12 (antibody, V domains shown, Monoclonal antibody from immunized mice (hybridoma)) VH: QVQLQQSGAELARPGASVNLSCRASGYSFTSFGISWVKQRTGQGLEWIGEIYPRSDNTFYNEKFKGKATLTADKSSSTAYMELRSLTSEDSAVYFCARHFGSSSFDYWGQGTTLTVSS VL: ENVLTQSPPIMAASLGQKVTMTCSASSSVSSIYFHWYQQKSGTSPKPLIHRASNLASGVPARFSGSGSGTSYSLTISSVEAEDDATYYCQQWSGYPLTFGGGTKLEIK
Reply: 0.00078 s⁻¹
